Source of measurements: patent US9895346B2

The following molecules are listed with their measured Inhibition rate on human cancer cells values.
system: lung cancer cell line A549; assay: In vitro cell inhibition assay (crystal violet), lung cancer A549; format: cell-based, human; settings: A549, 2.5 μM
Unit % implied. Number only.

These recorded examples may help you get a feel for the data.
COC=C(C(=O)OC)c1ccccc1COc1ccc2c3c(c(=O)oc2c1)CCCC3 : 100
COC=C(C(=O)OC)c1ccccc1COc1ccc2c(C(F)(F)F)cc(=O)oc2c1 : 70
CCc1cc(=O)oc2cc(OCc3ccccc3C(=COC)C(=O)OC)ccc12 : 95
COC=C(C(=O)OC)c1ccccc1COc1ccc2c3c(c(=O)oc2c1C)CCCC3 : 100
COC=C(C(=O)OC)c1ccccc1COc1ccc2c3c(c(=O)oc2c1C)CCC3 : 85

Incoming: Return reported Inhibition rate on human cancer cells. Input molecule: COC=C(C(=O)OC)c1ccccc1COc1ccc2c(-c3ccc(Br)cc3)cc(=O)oc2c1
Outgoing: 100

Incoming: Note down Inhibition rate on human cancer cells recorded for COC=C(C(=O)OC)c1ccccc1COc1ccc2c(-c3ccc(C)cc3)cc(=O)oc2c1
Outgoing: 100

Incoming: Return Inhibition rate on human cancer cells for the following molecule: CCc1c(C)c2ccc(OCc3ccccc3C(=COC)C(=O)OC)cc2oc1=O
Outgoing: 100

Incoming: Given the molecule CCCCc1c(C)c2ccc(OCc3ccccc3/C(=C\OC)C(=O)OC)cc2oc1=O , write its reported Inhibition rate on human cancer cells.
Outgoing: 100

Incoming: Give Inhibition rate on human cancer cells for CCCc1c(C)c2ccc(OCc3ccccc3C(=COC)C(=O)OC)cc2oc1=O
Outgoing: 90

Incoming: Tell me its Inhibition rate on human cancer cells given CCCc1cc(=O)oc2cc(OCc3ccccc3C(=COC)C(=O)OC)ccc12 as the entry.
Outgoing: 95

Incoming: Check the records and state Inhibition rate on human cancer cells for N.N.[Cl][Pt][Cl] [Cisplatin, reference compound]
Outgoing: 30

Incoming: Return Inhibition rate on human cancer cells for the following molecule: COC=C(C(=O)OC)c1ccccc1COc1ccc2c(C)c(Cl)c(=O)oc2c1
Outgoing: 95
